Values from the Deep4Chem optical property database

Entries annotated with measured photoluminescence quantum yield
- protocolNotes: photoluminescence quantum yield (fraction); solvent given as SMILES
- testParameters: in OCC(O)CO
Lab note: write the figure by itself, no unit.

The cases that follow already have their photoluminescence quantum yield on record.
>  <substanceSmiles>
Nc1ncnc2c1c(-c1ccc3ccccc3c1)nn2[C@H]1C[C@H](O)[C@@H](CO)O1

>  <photoluminescence quantum yield>
0.11

$$$$
>  <substanceSmiles>
CN(C)c1cc(C#N)c(N(C)C)c(C#N)c1

>  <photoluminescence quantum yield>
0.54

$$$$
>  <substanceSmiles>
CN(C)c1ccc(/C=C/c2nc3ccccc3s2)cc1

>  <photoluminescence quantum yield>
0.115

$$$$
>  <substanceSmiles>
CCCn1c2cccc3oc4cccc5oc6cccc1c6[c+](c45)c32

>  <photoluminescence quantum yield>
0.47

$$$$
>  <substanceSmiles>
CN(C)c1c2ccccc2cc2ccccc12

>  <photoluminescence quantum yield>
0.068

$$$$

Next compound, photoluminescence quantum yield to be filled in.
[Q] Bench note: what photoluminescence quantum yield did "CC(=O)c1ccc2ccc3c(NCCC(=O)NCCCCCCc4nc5c(=O)[nH]c(N)nc5n4[C@H]4C[C@H](O)[C@@H](CO)O4)ccc4ccc1c2c43" show?
[A] 0.38
